All figures here come from PubChem BioAssay.

We begin with a simple list: items and their reported z-score.
- measurementDescription: CREB reporter modulators without forskolin, primary screen, cell-based, PC12, CRE-LacZ reporter, unstimulated (AID 1145)
- conditionsUsed: no forskolin, luminescence, 4.5 h, higher = more signal, called active from +8 up or from −8 down
The response must contain the number and no unit.

Examples with their reported z-score follow.
molecule | assayMetric | testResult
CC(C)(C)N1C(=O)[C@H]2[C@H]3[C@H](O)[C@H](O)CC(=NO[C@@H]4O[C@H](CO)[C@@H](O)[C@H](O)[C@H]4O)[C@@H]3CC[C@H]2C1=O | z-score | 0.518
CCOC(=O)[C@H](Cc1ccccc1)NC(=O)CCC1CC(OC(=O)NCCc2ccc(F)cc2)CC2(CCCC(COC(=O)NCC(c3ccccc3)c3ccccc3)O2)O1 (stereo partly drawn) | z-score | 0.286

Okay, now this molecule:
Request: Requested read-out: z-score. Entry: CC(CCN1CCc2nc(-c3ccccc3)c(-c3ccccc3)cc2C1)=NOC[C@@H](C)[C@H](OCc1ccccc1)C(C)C
Response: 2.07

---

- measurementDescription: cell viability in Huh7 cells, primary screen, cytotoxicity control for HCV replication inhibitor project, CellTiter-Glo luminescence, basal, 48 h (AID 1143);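 note: Huh7 hepatoma cells carrying a hepatitis C replication reporter with no stimulus; test concentration not given here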
- conditionsUsed: Huh7 HCV replicon, higher = more signal, called active from +8 up or from −8 down
Below is a list of entries, each paired with its recorded z-score value.
Please state the value as a number alone, without comment.

Examples with answers:
compound | z-score
CN(C)c1ccc(C(O)C2C=CC3C(=O)N(c4ccccc4)C(=O)C3N2Nc2ccccc2F)cc1 (centres undefined) | -1.3
O=C1C[C@@H](O)[C@@H](O)[C@@H]2[C@@H]3C(=O)N(C4CCCCC4)C(=O)[C@@H]3CC[C@H]12 | 0.406
CCOC(=O)[C@H](CC(C)C)NC(=O)CCC1CC(OC(=O)NCc2cccc3ccccc23)CC2(CCCC(COC(=O)NCCN3CCOCC3)O2)O1 (some centres undefined) | -0.293
O=C1[C@H]2[C@H]3[C@H](O)[C@H](O)CC(=NOC[C@@H](O)COCc4ccco4)[C@H]3CC[C@H]2C(=O)N1C1CCCCC1 | -2.97
COCCOC(=O)N1C(=O)[C@@]2(c3cc(C#Cc4ccc(OC)cc4)ccc31)[C@H](c1ccc(O)cc1)N1[C@H](c3ccccc3)[C@H](c3ccccc3)OC(=O)[C@H]1[C@@H]2C(N)=O | -2.75
O=C(NN=C1C[C@@H](O)[C@@H](O)[C@@H]2[C@@H]3C(=O)N(c4ccc(F)cc4F)C(=O)[C@@H]3CC[C@@H]12)OCc1ccccc1 | 0.375

Request: Query (compound): COc1ccc(O[C@H]2C=C[C@@H](c3ccccc3)O[C@@H]2COC(=O)CCC(C)=NOC[C@@H](C)[C@H](OCc2ccccc2)C(C)C)cc1 ; field requested: z-score
Response: -1.55

Request: What measured z-score goes with CCOc1ccc(N2C(=O)/C(=C/C=C/c3ccccc3OC)S(=O)(=O)C2c2cccc([N+](=O)[O-])c2)cc1 (centres undefined) ?
Response: -4.29

---

- System: Plasmodium falciparum Sir2 (PF13_0152, Sir2A)
- measurementDescription: pfSir2 binders on small-molecule microarrays, primary screen, biochemical, small-molecule microarray, 635 nm fluorescence (AID 1098);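 note: score merges spot fluorescence intensity with its signal-to-noise ratio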
- conditionsUsed: small-molecule microarray binding, fluorescence 635 nm; higher = more signal
composite z-score below 0.9 gives Condition not met; composite z-score at or above it gives Condition met.

Request: Check the entry COc1ccc([Si](C)(C)[C@H]2[C@H](CCO)O[C@@]3(C(=O)N(Cc4cccc(NC(=O)[C@H](C)O)c4)c4ccccc43)[C@@H]2C)cc1 : does composite z-score equal or exceed 0.9?
Response: Condition met

Request: Could you please find out whether O=C1[C@H]2[C@H]3[C@H](O)[C@H](O)CC(=NOCc4ccccc4)[C@H]3CC[C@H]2C(=O)N1c1cccc(Oc2ccccc2)c1 has composite z-score that meets 0.9 or exceeds it?
Response: Condition not met

Request: Confirm if composite z-score reported for the compound CCN1C(=O)[C@H]2[C@H]3[C@H](O)[C@H](O)CC(=NOCc4ccccc4)[C@@H]3CC[C@H]2C1=O is 0.9 or above.
Response: Condition not met

Request: I'd appreciate it if you could say whether CO[C@H]1COC(=O)[C@H](C)COC(=O)CC=C[C@@H](C)[C@H](OC)COC(=O)CC=C[C@@H]1C has composite z-score at least equal to 0.9.
Response: Condition not met

Request: Entry CC(C)(C)OC(=O)CC[C@]1(C(=O)NCc2ccccc2)N=C(c2ccc(OCCCO)cc2)O[C@H]1c1ccccc1 : is its composite z-score no less than 0.9?
Response: Condition met

Request: Reported composite z-score reaches at least 0.9 for CCCC[C@H]1OB(O)C[C@H]2C1=C(C)C[C@H]1C(=O)N(C)C(=O)[C@H]12 ?
Response: Condition not met

Request: Is it the case that CC(CCN1CCc2nc(-c3ccccc3)c(-c3ccccc3)cc2C1)=NO[C@@H](C)c1cn([C@H](CO)Cc2ccccc2)nn1 has composite z-score reaching or exceeding 0.9?
Response: Condition not met

---

- measurementDescription: splicing luciferase reporter signal modulators, primary screen, spliceosome inhibition project, cell-based, HEK293, splice +/- reporter (AID 1101);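 note: HEK293 cells carrying a splicing-competent luciferase reporter gene; test concentration not given here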
- conditionsUsed: luminescence, 24 h, higher = more signal, called active from +8 up or from −8 down
Rule: z-score of -0.03 or more gives 1 (yes); anything lower gives 0 (no).

Sample answers from the record:
compound | labelClass
CCCCc1nc2c(c3c1C[C@H](C)OC3)CN(CCC(C)C)CC2 | 0 (no)
CN(C)CCCNC(=O)[C@@H]1c2ccccc2C(=O)N(Cc2ccccc2)[C@H]1c1ccc(CO)cc1 | 1 (yes)
CN1C(=O)[C@@]2(CCC(=O)OC(C)(C)C)N=C(c3ccc(OCCCO)cc3)O[C@H]2c2ccccc21 | 0 (no)
C#CCCCON=C1C[C@@H](O)[C@@H](O)[C@@H]2[C@@H]3C(=O)N(CCC(=O)OCC)C(=O)[C@@H]3CC[C@@H]12 | 1 (yes)

Request: Please check the record CCCC=C(CCC)[C@@H](NC(=O)c1ccc(-c2ccccc2)cc1)c1ccc(C(=O)OC)cc1 and state if its z-score is at or above -0.03.
Response: 0 (no)

Request: Is the recorded value of z-score equal to or greater than -0.03 for this compound? O=C1[C@H]2[C@H]3[C@H](O)[C@H](O)CC(=NOC[C@@H](O)COCc4ccco4)[C@H]3CC[C@H]2C(=O)N1c1cccc(Oc2ccccc2)c1
Response: 0 (no)

Request: Has CC[C@@H](c1ccccc1)n1c(=O)n2n(c1=O)[C@H]1[C@H](O)[C@@H]3O[C@@H]3C(=NOCC(C)C)[C@H]1CC2 a recorded z-score greater than or equal to -0.03?
Response: 1 (yes)

Request: Please tell me: is the compound CN(C)c1ccc(C(O)C2C=CC3C(=O)N(c4ccccc4)C(=O)C3N2Nc2ccccc2F)cc1 (stereo not drawn) at or over -0.03 in terms of z-score?
Response: 0 (no)

---

composite z-score values by entry
- systemName: Follistatin-related protein 3 (Homo sapiens) (UniProt O95633)
- Sequence (O95633 whole entry, looked up): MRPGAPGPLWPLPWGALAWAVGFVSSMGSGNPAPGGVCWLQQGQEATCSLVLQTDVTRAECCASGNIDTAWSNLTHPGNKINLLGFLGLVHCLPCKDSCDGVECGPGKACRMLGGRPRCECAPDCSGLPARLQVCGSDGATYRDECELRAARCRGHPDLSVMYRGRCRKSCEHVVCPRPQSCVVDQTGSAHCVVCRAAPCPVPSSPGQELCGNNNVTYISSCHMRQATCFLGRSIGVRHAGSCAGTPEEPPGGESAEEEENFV
- measurementDescription: FSTL3 binders on small-molecule microarrays, primary screen, biochemical, small-molecule microarray, 635 nm fluorescence (AID 1105);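 note: score merges emission near 667 nm and signal to noise per printed spot across three slides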
- conditionsUsed: FSTL3 binding, higher = more signal
Just the number.

cpdSmiles | composite z-score
COc1ccc([Si](C)(C)[C@@H]2[C@@H](CC(=O)N3CCC[C@H]3CO)O[C@]3(C(=O)N(Cc4cccc(N5CCC5=O)c4)c4ccccc43)[C@H]2C)cc1 | 0.7
CCCCC(=C=CC[C@H](O)c1ccccc1OCCO)C[C@H](O)COCc1ccccc1 | -0.349
CCOC(=O)CCN1C(=O)[C@H]2[C@H]3[C@H](O)[C@H](O)CC(=NNC(=O)OCc4ccc(OC)cc4)[C@@H]3CC[C@H]2C1=O | 1.32
CCN1C(=O)[C@H]2[C@H]3[C@H](O)[C@H](O)CC(=NOCC=C(C)CCC=C(C)C)[C@H]3CC[C@H]2C1=O | 1.43
CC(=O)OC[C@H]1O[C@H](CCON=C(C)CCC(=O)OC[C@H]2O[C@H](C#Cc3ccccc3)C=C[C@@H]2Oc2ccc(C)cc2)C=C[C@@H]1OC(C)=O | 0.521
CCCCCCc1nc(CCCc2cc3c(c(CCCCCC)n2)[Si](C(C)C)(C(C)C)O[C@H]3c2ccccc2)cc2c1[Si](C(C)C)(C(C)C)O[C@H]2c1ccccc1 | 0.0624

Now for a further molecule.
Request: Which composite z-score is reported with Follistatin-related protein 3 (Homo sapiens) (UniProt O95633) for this entry: O=C1c2ccccc2[C@@]2(Cc3ccccc3N(C3CC3)C2=O)[C@H](c2ccc(CO)cc2)N1Cc1ccccc1C(F)(F)F ?
Response: -0.672
